Recorded cell viability values for a group of compounds are listed next.
- System: PDC-DUC18828
- Experiment Notes: cell viability of compound + 1 nM pemigatinib relative to pemigatinib-only (DMSO) wells (fraction); higher = less growth inhibition
- Applied Conditions: first compound 1 µM; pemigatinib concentration 1 nM; 72 h
In all, about 1,900 compounds were measured (“cell viability of compound + 1 nM pemigatinib relative to pemigatinib-only (DMSO) wells”: median about 0.95 nM, lowest 2% from about 0.22 nM on). For the sample, the lowest values were picked, then their nearest neighbours and some compounds at random.
Measurement Label: cell viability

- Compound: "Cc1ncc(Cl)cc1NCc1ccc(C(=O)N[C@@H](CC2CCCC2)C(=O)NC2CC2)s1 + CCN1C(=O)N(c2c(F)c(OC)cc(OC)c2F)Cc2cnc3[nH]c(CN4CCOCC4)cc3c21"
  Measurement Label: "cell viability"
  Reported: 0.957
- Compound: "COc1cc(-c2cc(-c3ccc(N4CCNCC4)cc3)cnc2C)cc(OC)c1OC + CCN1C(=O)N(c2c(F)c(OC)cc(OC)c2F)Cc2cnc3[nH]c(CN4CCOCC4)cc3c21"
  Measurement Label: "cell viability"
  Reported: 0.955
- Compound: "COc1ccc(-c2ccc3ncc4c(c3c2)n(-c2ccc(N3CCNCC3)c(C(F)(F)F)c2)c(=O)n4C)cn1 + CCN1C(=O)N(c2c(F)c(OC)cc(OC)c2F)Cc2cnc3[nH]c(CN4CCOCC4)cc3c21"
  Measurement Label: "cell viability"
  Reported: 0.0142
- Compound: "C/C=C1\\NC(=O)[C@H]2CSSCC/C=C/[C@H](CC(=O)N[C@H](C(C)C)C(=O)N2)OC(=O)[C@H](C(C)C)NC1=O [Romidepsin (FK228, Depsipeptide)] + CCN1C(=O)N(c2c(F)c(OC)cc(OC)c2F)Cc2cnc3[nH]c(CN4CCOCC4)cc3c21"
  Measurement Label: "cell viability"
  Reported: 0.035
- Compound: "CNc1ncc2cc(-c3cc(NC(=O)NCCC(C)(C)C)c(F)cc3C)c(C)nc2n1 + CCN1C(=O)N(c2c(F)c(OC)cc(OC)c2F)Cc2cnc3[nH]c(CN4CCOCC4)cc3c21"
  Measurement Label: "cell viability"
  Reported: 0.644

----------
Recorded cell viability values for a group of compounds are listed next.
- System: PDC-DUC18828
- Experiment Notes: cell viability of compound + 1 nM pemigatinib relative to pemigatinib-only (DMSO) wells (fraction); higher = less growth inhibition
- Applied Conditions: first compound 1 µM; pemigatinib concentration 1 nM; 72 h
Whole data set: some 1,900 compounds, median “cell viability of compound + 1 nM pemigatinib relative to pemigatinib-only (DMSO) wells” near 0.95 nM, cut for the lowest 2% near 0.22 nM. The sample as a whole holds a higher share of the lowest values than the screen did.
Measurement Label: cell viability

- Compound: "CC(=O)Nc1ccc(NC(=S)NC(=O)c2ccc(C(C)(C)C)cc2)cc1 [Tenovin-1] + CCN1C(=O)N(c2c(F)c(OC)cc(OC)c2F)Cc2cnc3[nH]c(CN4CCOCC4)cc3c21"
  Measurement Label: "cell viability"
  Reported: 0.987
- Compound: "NC(=O)c1cnc(N[C@@H]2CCCC[C@@H]2N)nc1Nc1cccc(-n2nccn2)c1 + CCN1C(=O)N(c2c(F)c(OC)cc(OC)c2F)Cc2cnc3[nH]c(CN4CCOCC4)cc3c21"
  Measurement Label: "cell viability"
  Reported: 0.825
- Compound: "C=CCNC1=C2C[C@@H](C)C[C@H](OC)[C@H](O)[C@@H](C)/C=C(\\C)[C@H](OC(N)=O)[C@@H](OC)/C=C\\C=C(/C)C(=O)NC(=CC1=O)C2=O [17-AAG (Tanespimycin)] + CCN1C(=O)N(c2c(F)c(OC)cc(OC)c2F)Cc2cnc3[nH]c(CN4CCOCC4)cc3c21"
  Measurement Label: "cell viability"
  Reported: 0.309
- Compound: "c1cn2cc(-c3ccc4cn[nH]c4c3)nc(Nc3ccc(N4CCOCC4)cc3)c2n1 + CCN1C(=O)N(c2c(F)c(OC)cc(OC)c2F)Cc2cnc3[nH]c(CN4CCOCC4)cc3c21"
  Measurement Label: "cell viability"
  Reported: 0.78

----------
- Tested on: PDC-DUC18828
- Experiment Notes: cell viability of compound + 1 nM pemigatinib relative to pemigatinib-only (DMSO) wells (fraction); higher = less growth inhibition
- Applied Conditions: first compound 1 µM; pemigatinib concentration 1 nM; 72 h
Where a name gives a salt, the structure may show the parent alone. Over roughly 1,900 compounds, “cell viability of compound + 1 nM pemigatinib relative to pemigatinib-only (DMSO) wells” has its median near 0.95 nM; the lowest 2% begin near 0.22 nM. The full list was thinned out, with the lowest values kept by preference.
Measurement Label: cell viability

- Compound: "C[C@H](CCC(=O)NCCS(=O)(=O)O)[C@H]1CC[C@H]2[C@@H]3[C@@H](O)C[C@@H]4C[C@H](O)CC[C@]4(C)[C@H]3CC[C@]12C [Sodium Tauroursodeoxycholate (TUDC)] + CCN1C(=O)N(c2c(F)c(OC)cc(OC)c2F)Cc2cnc3[nH]c(CN4CCOCC4)cc3c21"
  Measurement Label: "cell viability"
  Reported: 0.951
- Compound: "CNC(=O)c1ccc(Nc2ncc(C(F)(F)F)c(NCc3nccnc3N(C)S(C)(=O)=O)n2)cc1 + CCN1C(=O)N(c2c(F)c(OC)cc(OC)c2F)Cc2cnc3[nH]c(CN4CCOCC4)cc3c21"
  Measurement Label: "cell viability"
  Reported: 0.894
- Compound: "O=C(O)CSc1cc(NS(=O)(=O)c2ccc(Br)cc2)c2ccccc2c1O + CCN1C(=O)N(c2c(F)c(OC)cc(OC)c2F)Cc2cnc3[nH]c(CN4CCOCC4)cc3c21"
  Measurement Label: "cell viability"
  Reported: 0.949
- Compound: "CN1CCC(NC(=O)c2cc(-c3c(O)cc(O)cc3Oc3ccc([N+](=O)[O-])cc3)on2)CC1 + CCN1C(=O)N(c2c(F)c(OC)cc(OC)c2F)Cc2cnc3[nH]c(CN4CCOCC4)cc3c21"
  Measurement Label: "cell viability"
  Reported: 0.331
- Compound: "CNS(=O)(=O)Nc1nccc(Cc2c(C)c3ccc(Oc4ncccn4)cc3oc2=O)c1F + CCN1C(=O)N(c2c(F)c(OC)cc(OC)c2F)Cc2cnc3[nH]c(CN4CCOCC4)cc3c21"
  Measurement Label: "cell viability"
  Reported: 0.713
- Compound: "Nc1nc(OCc2cc(Br)cs2)c2[nH]cnc2n1 [Lomeguatrib] + CCN1C(=O)N(c2c(F)c(OC)cc(OC)c2F)Cc2cnc3[nH]c(CN4CCOCC4)cc3c21"
  Measurement Label: "cell viability"
  Reported: 0.956
- Compound: "O=C1c2cccc(O)c2C(=O)c2c(O)cc(CO)cc21 [Aloe-emodin] + CCN1C(=O)N(c2c(F)c(OC)cc(OC)c2F)Cc2cnc3[nH]c(CN4CCOCC4)cc3c21"
  Measurement Label: "cell viability"
  Reported: 1.03
- Compound: "N#Cc1ccc(-c2csc(NN=C3CCCC3)n2)cc1 [Remodelin] + CCN1C(=O)N(c2c(F)c(OC)cc(OC)c2F)Cc2cnc3[nH]c(CN4CCOCC4)cc3c21"
  Measurement Label: "cell viability"
  Reported: 0.986
- Compound: "O=C1c2c(O)ccc(O)c2C(=O)c2c(NCCNCCO)ccc(NCCNCCO)c21 [Mitoxantrone HCl] + CCN1C(=O)N(c2c(F)c(OC)cc(OC)c2F)Cc2cnc3[nH]c(CN4CCOCC4)cc3c21"
  Measurement Label: "cell viability"
  Reported: 0.196

----------
- System: PDC-DUC18828
- Experiment Notes: cell viability of compound + 1 nM pemigatinib relative to pemigatinib-only (DMSO) wells (fraction); PDC-DUC18828 is a patient-derived cholangiocarcinoma cell line; higher = less growth inhibition
- Applied Conditions: first compound 1 µM; pemigatinib concentration 1 nM; 72 h
The full ranking holds about 1,900 compounds; the median of “cell viability of compound + 1 nM pemigatinib relative to pemigatinib-only (DMSO) wells” is about 0.95 nM, and the lowest 2% start at about 0.22 nM. The sample holds the lowest values, similar compounds and a random draw of the others, so the mix is not that of the screen.

- Compound: "CC1C(=O)OC2C(O)C34C5CC(C(C)(C)C)C36C(OC(=O)C6O)OC4(C(=O)O5)C12O (stereo not given) [Ginkgolide B] + CCN1C(=O)N(c2c(F)c(OC)cc(OC)c2F)Cc2cnc3[nH]c(CN4CCOCC4)cc3c21 [pemigatinib]"
  cell viability: 0.99
- Compound: "Fc1ccc(CNc2ncnc3ccc(F)cc23)cc1 [Spautin-1] + CCN1C(=O)N(c2c(F)c(OC)cc(OC)c2F)Cc2cnc3[nH]c(CN4CCOCC4)cc3c21 [pemigatinib]"
  cell viability: 0.843
- Compound: "Clc1cccc(-c2nnnn2Cc2cccnc2)c1Cl + CCN1C(=O)N(c2c(F)c(OC)cc(OC)c2F)Cc2cnc3[nH]c(CN4CCOCC4)cc3c21 [pemigatinib]"
  cell viability: 0.933
- Compound: "CCCC(C)NC(=O)c1ccc(Cl)c(Cl)c1 (stereo not given) + CCN1C(=O)N(c2c(F)c(OC)cc(OC)c2F)Cc2cnc3[nH]c(CN4CCOCC4)cc3c21 [pemigatinib]"
  cell viability: 1.02
- Compound: "CC(C)C[C@H](NC(=O)CNC(=O)c1cc(Cl)ccc1Cl)B1OC(=O)C(CC(=O)O)(CC(=O)O)O1 + CCN1C(=O)N(c2c(F)c(OC)cc(OC)c2F)Cc2cnc3[nH]c(CN4CCOCC4)cc3c21 [pemigatinib]"
  cell viability: 0.0198
